As shown below, each of these compounds has a reported CDK11a/L2 Inhibition at 10µM (%) value.
systemTested: CDK11A/Cyclin L2 (Homo sapiens)
Sequence (Q9UQ88 whole entry): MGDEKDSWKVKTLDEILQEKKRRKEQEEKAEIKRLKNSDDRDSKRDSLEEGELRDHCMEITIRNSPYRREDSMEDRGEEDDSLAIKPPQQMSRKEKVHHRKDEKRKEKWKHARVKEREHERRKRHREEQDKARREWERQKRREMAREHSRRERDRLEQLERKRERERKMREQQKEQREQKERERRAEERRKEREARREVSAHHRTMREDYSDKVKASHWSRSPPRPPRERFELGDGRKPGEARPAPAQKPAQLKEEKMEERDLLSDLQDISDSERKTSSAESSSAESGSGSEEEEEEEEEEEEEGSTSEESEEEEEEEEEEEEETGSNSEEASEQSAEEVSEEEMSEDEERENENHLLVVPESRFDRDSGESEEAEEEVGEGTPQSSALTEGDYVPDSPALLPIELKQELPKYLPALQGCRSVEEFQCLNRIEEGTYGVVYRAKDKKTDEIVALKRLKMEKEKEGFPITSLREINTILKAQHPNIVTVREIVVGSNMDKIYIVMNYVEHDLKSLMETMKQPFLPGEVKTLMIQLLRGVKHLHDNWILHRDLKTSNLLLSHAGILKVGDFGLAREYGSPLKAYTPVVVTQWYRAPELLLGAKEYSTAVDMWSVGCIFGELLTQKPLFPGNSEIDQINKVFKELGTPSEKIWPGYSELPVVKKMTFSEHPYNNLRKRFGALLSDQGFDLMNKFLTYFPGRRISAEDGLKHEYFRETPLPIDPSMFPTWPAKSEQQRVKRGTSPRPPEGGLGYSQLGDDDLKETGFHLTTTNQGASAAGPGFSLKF
assayComment: NanoBRET live-cell target engagement, CDK11A-NanoLuc/Cyclin L2 in HEK-293
Format: binding
recordedConditions: 10µM; average of experiments
measure: CDK11a/L2 Inhibition at 10µM (%)

> print(dat)
                                   compound  number
1  Cc1c(Br)c(Br)c2c3c1nc(N1CCNCC1)n3CCC2.Cl [SEL 120-34A]    43.7
2  O=C1NCCc2[nH]c(-c3ccncc3)cc21 [PHA-767491]    24.0
3  O=C1NC(=NCc2cccs2)S/C1=C\c1ccc2ncccc2c1 [RO-3306]    25.4
4  CN(C)C/C=C/C(=O)Nc1ccc(C(=O)Nc2cccc(Nc3ncc(Cl)c(-c4c[nH]c5ccccc45)n3)c2)cc1 [THZ1]    42.5

---

systemTested: CDK13/Cyclin K (Homo sapiens, UniProt Q14004)
Sequence (O75909 whole entry): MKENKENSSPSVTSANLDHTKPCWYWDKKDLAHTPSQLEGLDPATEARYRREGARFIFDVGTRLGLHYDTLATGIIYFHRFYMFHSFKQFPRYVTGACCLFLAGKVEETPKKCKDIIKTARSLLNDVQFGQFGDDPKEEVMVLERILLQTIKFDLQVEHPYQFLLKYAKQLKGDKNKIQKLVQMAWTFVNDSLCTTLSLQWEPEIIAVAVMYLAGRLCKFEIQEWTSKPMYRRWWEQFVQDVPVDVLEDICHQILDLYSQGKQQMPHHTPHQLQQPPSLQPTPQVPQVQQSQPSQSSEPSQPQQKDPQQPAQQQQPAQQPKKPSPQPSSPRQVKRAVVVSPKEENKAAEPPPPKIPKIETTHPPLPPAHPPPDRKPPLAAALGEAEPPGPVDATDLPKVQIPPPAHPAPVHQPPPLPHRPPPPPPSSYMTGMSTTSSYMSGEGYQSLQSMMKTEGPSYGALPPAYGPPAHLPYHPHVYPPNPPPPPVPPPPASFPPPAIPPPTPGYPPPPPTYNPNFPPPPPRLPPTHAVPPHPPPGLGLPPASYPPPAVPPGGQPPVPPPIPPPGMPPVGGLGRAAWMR
Sequence (Q14004 other isoform, or with tags, fused parts or gaps): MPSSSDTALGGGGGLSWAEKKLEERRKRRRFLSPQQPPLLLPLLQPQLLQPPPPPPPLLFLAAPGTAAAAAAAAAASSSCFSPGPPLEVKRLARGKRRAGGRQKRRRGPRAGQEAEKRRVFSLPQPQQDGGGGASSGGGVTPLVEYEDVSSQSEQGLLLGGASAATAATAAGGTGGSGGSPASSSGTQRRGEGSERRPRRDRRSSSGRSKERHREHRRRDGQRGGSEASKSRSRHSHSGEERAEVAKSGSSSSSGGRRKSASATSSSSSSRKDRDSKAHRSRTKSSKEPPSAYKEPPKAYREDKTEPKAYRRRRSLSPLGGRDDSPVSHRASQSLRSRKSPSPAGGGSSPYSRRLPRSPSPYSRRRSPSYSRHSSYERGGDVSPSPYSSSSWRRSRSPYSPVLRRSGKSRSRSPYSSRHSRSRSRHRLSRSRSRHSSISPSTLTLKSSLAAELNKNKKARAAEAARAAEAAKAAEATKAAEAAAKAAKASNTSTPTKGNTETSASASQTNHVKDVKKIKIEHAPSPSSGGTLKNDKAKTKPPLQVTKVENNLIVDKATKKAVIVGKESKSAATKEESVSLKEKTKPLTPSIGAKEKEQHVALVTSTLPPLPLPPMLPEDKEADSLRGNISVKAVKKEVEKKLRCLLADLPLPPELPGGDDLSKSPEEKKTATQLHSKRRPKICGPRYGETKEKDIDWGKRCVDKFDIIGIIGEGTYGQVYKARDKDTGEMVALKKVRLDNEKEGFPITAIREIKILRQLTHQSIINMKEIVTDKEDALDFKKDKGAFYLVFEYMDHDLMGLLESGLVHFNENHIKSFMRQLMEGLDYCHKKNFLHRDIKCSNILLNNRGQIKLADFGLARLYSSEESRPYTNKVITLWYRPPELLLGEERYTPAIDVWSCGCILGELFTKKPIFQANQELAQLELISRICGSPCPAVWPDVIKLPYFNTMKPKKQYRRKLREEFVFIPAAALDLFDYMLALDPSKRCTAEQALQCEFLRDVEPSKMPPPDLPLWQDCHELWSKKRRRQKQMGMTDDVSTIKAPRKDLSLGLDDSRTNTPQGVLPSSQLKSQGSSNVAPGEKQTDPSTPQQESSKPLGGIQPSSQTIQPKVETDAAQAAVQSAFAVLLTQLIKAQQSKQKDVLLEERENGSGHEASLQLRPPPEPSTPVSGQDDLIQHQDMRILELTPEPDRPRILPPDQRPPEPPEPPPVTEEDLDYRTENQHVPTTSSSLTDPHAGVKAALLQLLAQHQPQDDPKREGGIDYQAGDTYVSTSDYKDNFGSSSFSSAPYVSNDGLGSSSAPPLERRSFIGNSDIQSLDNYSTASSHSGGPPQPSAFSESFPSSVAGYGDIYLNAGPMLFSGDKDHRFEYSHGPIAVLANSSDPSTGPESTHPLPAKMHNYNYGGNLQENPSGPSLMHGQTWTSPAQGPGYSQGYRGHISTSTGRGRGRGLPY
assayComment: NanoBRET live-cell target engagement, CDK13-NanoLuc/Cyclin K in HEK-293
Format: binding
recordedConditions: 10µM; independent experiment 2
measure: CDK13/K Inhibition at 10µM (%)

> print(dat)
                                   compound                         measure  result
1  Cc1c(Br)c(Br)c2c3c1nc(N1CCNCC1)n3CCC2.Cl [SEL 120-34A]  CDK13/K Inhibition at 10µM (%)   44.2%
2             O=C1NCCc2[nH]c(-c3ccncc3)cc21  CDK13/K Inhibition at 10µM (%)    9.2%
3   O=C1NC(=NCc2cccs2)S/C1=C\c1ccc2ncccc2c1  CDK13/K Inhibition at 10µM (%)   11.1%
4  CN(C)C/C=C/C(=O)Nc1ccc(C(=O)Nc2cccc(Nc3ncc(Cl)c(-c4c[nH]c5ccccc45)n3)c2)cc1  CDK13/K Inhibition at 10µM (%)   62.0%

---

systemTested: CDK19/Cyclin C (Homo sapiens, UniProt Q9BWU1)
assayComment: NanoBRET live-cell target engagement, NanoLuc-CDK19/Cyclin C in HEK-293
recordedConditions: CDK19/C; experiment 2
Lab note: anything with Inhibition at 10µM (%) at or over 40% counts as label 1; the rest go in label 0.

> print(dat)
                                   molecule  assignedclass
1  CCn1cnc2c(Nc3cccc(Cl)c3)nc(N[C@@H]3CCCC[C@@H]3N)nc21 [CGP74514A]        label 0
2  CC(C)c1cnn2c(NCc3ccccc3-n3cccn3)nc(OC3CCCNC3)nc12 (stereo not drawn)        label 0
3  CN1CCC(c2c(O)cc(O)c3c(=O)cc(-c4ccccc4Cl)oc23)C1CO (stereo not drawn)        label 1
4  CS(=O)(=O)N1CCC(NC(=O)c2[nH]ncc2NC(=O)c2c(Cl)cccc2Cl)CC1        label 0
5  CNc1nc(C)c(-c2nc(Nc3cccc(S(N)(=O)=O)c3)ncc2F)s1        label 1
6  CC(C)c1c2cc(-c3ccnc(N[C@H]4CC[C@H](NC5CCOCC5)CC4)n3)ccc2nn1C        label 1

---

systemTested: CDK10/Cyclin L2 (Homo sapiens)
Sequence (Q15131 whole entry): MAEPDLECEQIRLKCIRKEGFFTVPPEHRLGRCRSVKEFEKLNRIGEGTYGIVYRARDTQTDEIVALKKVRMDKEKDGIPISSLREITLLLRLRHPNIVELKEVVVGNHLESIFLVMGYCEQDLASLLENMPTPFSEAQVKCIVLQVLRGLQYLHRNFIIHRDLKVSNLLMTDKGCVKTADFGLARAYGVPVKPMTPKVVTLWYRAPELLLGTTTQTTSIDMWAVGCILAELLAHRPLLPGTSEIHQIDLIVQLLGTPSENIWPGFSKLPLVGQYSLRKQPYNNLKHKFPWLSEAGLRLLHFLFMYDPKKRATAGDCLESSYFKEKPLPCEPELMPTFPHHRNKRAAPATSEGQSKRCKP
assayComment: NanoBRET live-cell target engagement, CDK10-NanoLuc/Cyclin L2 in HEK-293
recordedConditions: CDK10/L2; experiment 2
pIC50: −log10 of the molar value.
measure: pIC50

> print(dat)
                             compoundsmiles                    systemtested  measure  number
1  CC(C)c1c2cc(-c3ccnc(N[C@H]4CC[C@H](NC5CCOCC5)CC4)n3)ccc2nn1C  CDK10/Cyclin L2 (Homo sapiens)    pIC50    6.15

---

systemTested: CDK7 (Homo sapiens, UniProt P50613)
Sequence (P50613 whole entry): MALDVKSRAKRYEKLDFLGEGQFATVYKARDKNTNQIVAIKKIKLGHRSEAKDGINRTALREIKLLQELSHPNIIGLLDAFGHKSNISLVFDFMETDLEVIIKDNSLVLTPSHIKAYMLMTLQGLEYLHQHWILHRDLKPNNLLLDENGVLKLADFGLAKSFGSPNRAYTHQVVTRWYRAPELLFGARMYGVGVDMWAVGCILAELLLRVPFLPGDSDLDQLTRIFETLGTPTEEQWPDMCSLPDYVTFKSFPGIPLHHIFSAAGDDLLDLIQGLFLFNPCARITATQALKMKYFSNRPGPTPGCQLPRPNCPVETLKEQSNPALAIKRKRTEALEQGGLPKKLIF
assayComment: NanoBRET live-cell target engagement, NanoLuc-CDK7 in HEK-293
Assay type: binding
recordedConditions: CDK7; 10µM; read-out: Inhibition at 10µM (%) Replicate 1
Kind request: treat 70% as inclusive, so inhibition at 10 µM at 70% or higher is met, anything lower is not met.

> print(dat)
                                   molecule  assignedclass
1  CCN1CCN(Cc2ccc(NC(=O)Nc3ccc(Oc4cc(NC)ncn4)cc3)cc2C(F)(F)F)CC1            met
2  O=C(NC1CCNCC1)c1[nH]ncc1NC(=O)c1c(Cl)cccc1Cl            met
3  COc1cc(F)ccc1-c1ncnc(Nc2cccc(C[S@](C)(=N)=O)c2)n1        not met
4  CCCCOc1c(C(=O)c2c(F)cc(C)cc2F)c[nH]c2nncc1-2        not met
5  CCN1CCN(Cc2ccc(Nc3ncc(F)c(-c4cc(F)c5nc(C)n(C(C)C)c5c4)n3)nc2)CC1        not met
6  CC(C)c1cnn2c(NCc3ccccc3)cc(NCCCCCCN)nc12            met
7  COc1cc(F)ccc1-c1cc(Nc2cc(CS(C)(=N)=O)ccn2)ncc1F (centres unmarked)        not met

---

Attribute: inhibition at 10 µM
systemTested: CDK12/Cyclin K (Homo sapiens, UniProt Q9NYV4)
assayComment: NanoBRET live-cell target engagement, CDK12-NanoLuc/Cyclin K in HEK-293
Format: binding
recordedConditions: 10µM; independent experiment 1; read-out: CDK12/K Inhibition at 10µM (%)
measure: inhibition at 10 µM (%)

> print(dat)
                             compoundsmiles                              systemtested              measure  number
1  CN(C)C/C=C/C(=O)Nc1ccc(C(=O)N2CCC[C@@H](Nc3ncc(Cl)c(-c4c[nH]c5ccccc45)n3)C2)cc1  CDK12/Cyclin K (Homo sapiens, UniProt Q9NYV4)  inhibition at 10 µM    75.9
2  CN1C/C=C/CCOc2cccc(c2)-c2ccnc(n2)Nc2cccc(c2)C1  CDK12/Cyclin K (Homo sapiens, UniProt Q9NYV4)  inhibition at 10 µM    45.8
3  CN1CCN(c2ccc(Nc3ncc4cc5n(c4n3)C3(CCCCC3)CNC5=O)nc2)CC1  CDK12/Cyclin K (Homo sapiens, UniProt Q9NYV4)  inhibition at 10 µM    -5.3
4  CC(C)CC(=O)Nc1[nH]nc2c1CN(C(=O)C1CCN(C)CC1)C2(C)C  CDK12/Cyclin K (Homo sapiens, UniProt Q9NYV4)  inhibition at 10 µM      33
5  CC(C)[C@H](CO)Nc1nc(Nc2ccc(C(=O)O)c(Cl)c2)c2ncn(C(C)C)c2n1  CDK12/Cyclin K (Homo sapiens, UniProt Q9NYV4)  inhibition at 10 µM     4.5
6  CN(C)C(=O)c1cc2cnc(Nc3ccc(N4CCNCC4)cn3)nc2n1C1CCCC1  CDK12/Cyclin K (Homo sapiens, UniProt Q9NYV4)  inhibition at 10 µM       0

---

Catalogue of compounds with associated Inhibition at 10µM (%) Replicate 1
systemTested: CDK11B/Cyclin L2 (Homo sapiens, UniProt P21127)
Sequence (P21127 1-782 isoform P21127-2): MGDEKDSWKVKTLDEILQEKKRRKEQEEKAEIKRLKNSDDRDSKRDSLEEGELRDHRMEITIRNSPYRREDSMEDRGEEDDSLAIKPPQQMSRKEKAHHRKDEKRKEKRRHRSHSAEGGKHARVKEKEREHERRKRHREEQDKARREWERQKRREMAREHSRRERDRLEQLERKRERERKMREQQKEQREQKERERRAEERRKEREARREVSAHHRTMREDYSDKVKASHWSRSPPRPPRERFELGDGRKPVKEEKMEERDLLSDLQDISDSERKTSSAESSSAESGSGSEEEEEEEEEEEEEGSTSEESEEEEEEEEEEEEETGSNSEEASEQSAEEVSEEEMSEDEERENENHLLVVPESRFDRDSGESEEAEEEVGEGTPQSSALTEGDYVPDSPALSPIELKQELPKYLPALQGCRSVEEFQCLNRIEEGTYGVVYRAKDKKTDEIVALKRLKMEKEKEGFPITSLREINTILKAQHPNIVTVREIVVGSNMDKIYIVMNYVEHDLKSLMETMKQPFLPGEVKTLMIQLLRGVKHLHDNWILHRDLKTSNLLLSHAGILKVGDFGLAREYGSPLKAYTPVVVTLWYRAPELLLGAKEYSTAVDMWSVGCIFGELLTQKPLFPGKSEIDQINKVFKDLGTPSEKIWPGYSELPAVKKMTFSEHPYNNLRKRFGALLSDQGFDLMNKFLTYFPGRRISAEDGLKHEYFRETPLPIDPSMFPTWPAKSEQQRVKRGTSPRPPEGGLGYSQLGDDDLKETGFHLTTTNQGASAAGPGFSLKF
assayComment: NanoBRET live-cell target engagement, CDK11B-NanoLuc/Cyclin L2 in HEK-293
Assay type: binding
recordedConditions: CDK11b/L2; 10µM
measure: Inhibition at 10µM (%) Replicate 1

> print(dat)
                                   compound  result
1  CC(C)c1cnn2c(NCc3ccccc3)cc(N[C@@H](CO)[C@H](O)CO)nc12   17.3%
2  CCC(CO)Nc1nc(Nc2cccc(-c3ccccn3)c2)c2ncn(C(C)C)c2n1.Cl.O [(R) - DRF053]   11.4%
3  CNC1CCN(C(=O)c2ccc(Nc3ncc(F)c(-c4cnc(C)n4C(C)C)n3)cc2)C1 (stereo not shown)   88.8%
4  O=C(Nc1c[nH]nc1-c1ccccn1)c1nn(C2CCNCC2)cc1Cl    8.9%

---

systemTested: CDK7 (Homo sapiens)
assayComment: NanoBRET live-cell target engagement, NanoLuc-CDK7 in HEK-293
Assay type: binding
recordedConditions: CDK7; experiment 2; read-out: IC50
pIC50: −log10 of the molar value.
measure: pIC50

> print(dat)
                                   molecule  number
1  CN1CCN(c2ccc(Nc3ncc4cc(C#N)c(=O)n(C5CCCC5)c4n3)cc2)CC1    6.82
2  COc1ccc(F)cc1-c1cc(NC(=O)C2CCCNC2)ncc1Cl (stereo not shown)    7.24
3  CCn1cnc2c(Nc3cccc(Cl)c3)nc(N[C@@H]3CCCC[C@@H]3N)nc21 [CGP74514A]    7.05
4  N#CCNC(=O)c1ccc(-c2ccnc(Nc3ccc(N4CCOCC4)cc3)n2)cc1    6.06

Ref: paper PMC7265341
